Molecular target: T1, human oncogenic ras p21 (human)
T1 chain: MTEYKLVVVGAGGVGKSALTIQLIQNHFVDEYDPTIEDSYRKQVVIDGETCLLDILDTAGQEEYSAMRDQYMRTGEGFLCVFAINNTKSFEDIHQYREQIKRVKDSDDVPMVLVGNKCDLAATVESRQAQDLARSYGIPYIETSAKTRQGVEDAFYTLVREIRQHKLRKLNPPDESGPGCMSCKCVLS
Assay: cell-based or functional assay
Provide the reported Present Inhibition of ras-Induced Maturation of each item.
Numbers only, in %.

A selection of reference data follows.
Binder | Measure Unit | Observed Value
YREQIKRVKDSDDVP [peptide of SEQ ID NO:7, Tyr-Arg-Glu-Gln-Ile-Lys-Arg-Val-Lys-Asp-Ser-Asp-Asp-Val-Pro] | % | 56
CDLAART [peptide of SEQ ID NO:9, Cys-Asp-Leu-Ala-Ala-Arg-Thr] | % | 65
KRV [Lys-Arg-Val] | % | 22

// batch mode: one Present Inhibition of ras-Induced Maturation value per listed entry
1. TIEDSYRKQVVID [peptide of SEQ ID NO:6, Thr-Ile-Glu-Asp-Ser-Tyr-Arg-Lys-Gln-Val-Val-Ile-Asp]
2. KCDLA [peptide of SEQ ID NO:2, Lys-Cys-Asp-Leu-Ala]

Ans:
1: 28; 2: 38
